system: Human immunodeficiency virus 1; test: Antiviral activity against CCR5 tropic HIV1 BaL infected in human TZM-bl cells assessed as inhibition of virus-induced cytopathic effect preincubated with cells for 30 mins followed by viral infection measured after 48 hrs in presence of p-24 HIV-1 Ag by luciferase reporter gene assay; assay type: functional, cell-based; settings: Human immunodeficiency virus 1, BaL
Listed below: EC50 values for each entry.

Entry CCCCCOC(=O)C[C@H](NP(=O)(CO[C@@H](CF)Cn1ccc(N)nc1=O)Oc1ccccc1)C(=O)OCCCCC (some centres not stated) ; EC50 = > 54.2 µM

* * *

test system: Human immunodeficiency virus 1; experiment: Antiviral activity against CCR5 tropic HIV1 BaL infected in human TZM-bl cells assessed as inhibition of virus-induced cytopathic effect preincubated with cells for 30 mins followed by viral infection measured after 48 hrs in presence of p-24 HIV-1 Ag by luciferase reporter gene assay; type: functional, cell-based; conditions: Human immunodeficiency virus 1, BaL
pEC50: −log10 of the molar value.
Below is a list of entries, each paired with its recorded pEC50 value.

Below, each entry is followed by its recorded pEC50 result.
CCCCCOC(=O)C[C@H](NP(=O)(CO[C@H](CF)Cn1ccc(N)nc1=O)Oc1ccccc1)C(=O)OCCCCC (stereo partly specified)	< 4.16
Nc1ccn(C[C@H](CF)OCP(=O)(O)O)c(=O)n1	< 4.00
CCCCCOC(=O)C[C@H](NP(=O)(CO[C@@H](CF)Cn1cc(C)c(=O)[nH]c1=O)Oc1ccccc1)C(=O)OCCCCC (stereo partly specified)	< 4.00
Cc1cn(C[C@H](CF)OCP(=O)(O)O)c(=O)[nH]c1=O	< 4.00
Cc1cn(C[C@@H](CF)OCP(=O)(O)O)c(=O)[nH]c1=O	< 4.00

# molecule CCCCCOC(=O)C[C@H](NP(=O)(CO[C@H](CF)Cn1cc(C)c(=O)[nH]c1=O)Oc1ccccc1)C(=O)OCCCCC (stereo partly specified) ; its pEC50 = < 4.36
